- targetDesc: T1, TIAM2, Q8IVF5
- T1 sequence (Q8IVF5 885-986, limits assumed, looked up): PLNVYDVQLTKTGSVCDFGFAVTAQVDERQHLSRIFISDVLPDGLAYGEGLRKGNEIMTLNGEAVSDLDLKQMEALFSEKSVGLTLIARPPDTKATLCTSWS
- testMethodNotes: holdup assay
- Set-up: key: below the threshold = too weak to quantify, mostly under pKd 3.1 to 4
- testConditions: plain residues with an end cap or a label only (N-terminal biotin on a linker: ado-ado)
Binary classification by pKd, with 4 as an inclusive lower bound for yes; all other cases are no.

1. DFKHTKSFII [JAM2, P57087]	yes

IN: pKd >= 4 for RDYTQSSSSL [GRM5, P41594] ?
OUT: no

IN: Hi, just wondering whether THHRKIHTRV [ZNF599, Q96NL3] shows pKd of 4 or higher.
OUT: no

IN: Answer whether pKd of NKSEPFLTWL [WWTR1, Q9GZV5] is greater than or equal to 4.
OUT: no

FYI, the data here is from paper PMC9482650.
